Values were extracted from PubChem BioAssay AID1159580.

# reported normalized growth; entries follow
Assay: chemical genetic growth profiling, strain panel (AID 1159580);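 note: tested at 20 µM; growth read once vehicle control cultures reached saturation at 30 °C; 1 = growth at the plate median or of vehicle wells; lower values mean less growth of the strain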
Details: S. cerevisiae deletion strains, growth OD, locus YNL067W, strain RPL9B, active compounds read low
Out of some 5,500 compounds screened, about 2,000 (36%) were called active. Inconclusive results (about 18%) are left out. Some of the results follow.

# molecule, normalized growth
measured = [
    ("CC(C)N=C(N)N=C(N)Nc1ccc(Cl)cc1", 1.01),
    ("N[C@@H](C(=O)N[C@@H]1C(=O)N2C(C(=O)O)=C(Cl)CS[C@H]12)c1ccccc1", 1.01),
    ("CC(=O)NS(=O)(=O)c1ccc(N)cc1", 1),
    ("NC(=NCCCCCCN=C(N)N=C(N)Nc1ccc(Cl)cc1)N=C(N)Nc1ccc(Cl)cc1", 0.0509),
    ("O=C1C=CC(=O)c2c(O)cccc21", 0.979),
    ("NS(=O)(=O)c1cc2c(cc1Cl)NCNS2(=O)=O", 1.01),
    ("CC1=C(C(=O)O)N2C(=O)[C@@H](NC(=O)[C@@H](N)c3ccc(O)cc3)[C@H]2SC1", 1),
    ("Oc1cccc2cccnc12", 0.0496),
    ("O=C(O)c1cc(O)c2c(c1)C(=O)c1cc(O)cc(O)c1C2=O", 0.977),
    ("O=C1C(=O)c2ccccc2C(O)=C1C1CCC(c2ccc(Cl)cc2)CC1 (configuration not stated)", 0.997),
    ("O=C(O)c1cccnc1C(=O)O", 1.06),
    ("COc1cc(Cc2cnc(N)nc2N)cc(OC)c1OC", 1),
]
